Target entity: human ether-à-go-go-related gene (hERG) potassium channel (human);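 also: peak tail current of the secondary pulse compared with the same well before compound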
Sequence (Q12809 whole entry, looked up): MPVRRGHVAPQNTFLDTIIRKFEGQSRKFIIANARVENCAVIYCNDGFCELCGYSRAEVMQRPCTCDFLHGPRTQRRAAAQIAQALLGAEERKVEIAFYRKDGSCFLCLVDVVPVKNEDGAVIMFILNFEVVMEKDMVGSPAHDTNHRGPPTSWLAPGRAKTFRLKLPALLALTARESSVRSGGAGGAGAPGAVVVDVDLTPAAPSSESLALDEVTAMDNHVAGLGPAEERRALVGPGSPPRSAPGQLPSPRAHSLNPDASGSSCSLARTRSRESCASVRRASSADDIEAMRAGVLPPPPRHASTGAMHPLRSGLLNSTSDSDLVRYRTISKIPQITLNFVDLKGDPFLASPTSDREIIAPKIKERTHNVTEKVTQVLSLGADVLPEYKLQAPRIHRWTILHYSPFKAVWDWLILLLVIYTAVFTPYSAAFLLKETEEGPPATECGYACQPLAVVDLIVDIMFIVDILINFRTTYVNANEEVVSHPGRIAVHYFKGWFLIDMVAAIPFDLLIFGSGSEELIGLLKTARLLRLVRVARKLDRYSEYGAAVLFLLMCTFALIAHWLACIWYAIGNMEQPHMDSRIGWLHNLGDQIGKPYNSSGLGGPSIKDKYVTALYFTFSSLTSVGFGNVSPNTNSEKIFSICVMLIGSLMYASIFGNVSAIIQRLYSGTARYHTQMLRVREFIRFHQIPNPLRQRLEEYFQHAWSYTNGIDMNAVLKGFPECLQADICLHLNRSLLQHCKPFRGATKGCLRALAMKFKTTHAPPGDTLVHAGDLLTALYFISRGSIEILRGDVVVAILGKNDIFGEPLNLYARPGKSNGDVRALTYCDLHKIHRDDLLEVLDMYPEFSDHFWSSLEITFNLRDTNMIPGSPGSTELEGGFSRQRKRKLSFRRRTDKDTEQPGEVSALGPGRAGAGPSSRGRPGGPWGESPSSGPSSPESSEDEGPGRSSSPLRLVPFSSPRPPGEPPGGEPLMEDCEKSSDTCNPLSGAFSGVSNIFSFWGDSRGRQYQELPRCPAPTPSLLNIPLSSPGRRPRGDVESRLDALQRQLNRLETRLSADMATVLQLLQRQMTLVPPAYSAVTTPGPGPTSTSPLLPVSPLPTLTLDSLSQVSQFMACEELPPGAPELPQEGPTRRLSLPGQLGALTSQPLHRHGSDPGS
Procedure details: primary screen, population patch clamp on CHO cells stably expressing hERG; higher = less effect of the substance
Description: Briefly, Chinese hamster ovary (CHO) cells stably expressing the hERG channel were dislodged from tissue culture flasks and dispensed into PPC plates. […] During the recording, background leak currents were estimated by a 100 ms step to -80 mV from an initial holding potential of -70 mV and subtracted from the subsequent current measurement. The campaign was conducted in two phases using slight differences in recording protocol. […]
Out of some 310,000 compounds screened, about 14,000 (4.5%) showed an effect of 50% or more. The effect is printed as a negative number. What follows is part of a selection rich in strong results, with near analogues and random picks from the rest.
Record form. Attribute: hERG current change (%, negative = inhibition) at 10uM. Fill in for each entry.

Hello, please tell me recorded hERG current change (%, negative = inhibition) at 10uM for this one: CCN(C(=O)CN1C(=O)c2ccc([N+](=O)[O-])cc2C1=O)C1CCS(=O)(=O)C1 (stereo not drawn)
13.8%

Hello, please tell me recorded hERG current change (%, negative = inhibition) at 10uM for this one: CCN(C(=O)CSc1nc2ccc([N+](=O)[O-])cc2s1)C1CCS(=O)(=O)C1 (stereo not drawn)
-61.8%

Hello, please tell me recorded hERG current change (%, negative = inhibition) at 10uM for this one: CCc1cc(=O)oc2c(CNC(Cc3ccccc3)C(=O)O)c(O)ccc12 (stereo not drawn)
9.3%

Hello, please tell me recorded hERG current change (%, negative = inhibition) at 10uM for this one: Cc1cc(C)n(-c2nc(NC(C)(C)C)nc(NC(C)(C)C)n2)n1
-6.46%

Hello, please tell me recorded hERG current change (%, negative = inhibition) at 10uM for this one: CCOc1ccc(Br)cc1CNCCN1CCOCC1
1.31%

Hello, please tell me recorded hERG current change (%, negative = inhibition) at 10uM for this one: CCOCCCNCc1cc(Br)ccc1OCc1ccccc1
-68.1%

Hello, please tell me recorded hERG current change (%, negative = inhibition) at 10uM for this one: COc1ccc(CCNCc2c(-c3ccccc3)n(C)c3ccccc23)cc1.O=C(O)C(=O)O
-52.3%

Hello, please tell me recorded hERG current change (%, negative = inhibition) at 10uM for this one: Cc1ccc(CSCC(=O)N/N=C/c2cccc(OC3CSC3)c2)cc1
11.4%

Hello, please tell me recorded hERG current change (%, negative = inhibition) at 10uM for this one: Cc1ccc(C(=O)NCC(=O)OCC(=O)c2ccccc2)s1
-12.6%

Hello, please tell me recorded hERG current change (%, negative = inhibition) at 10uM for this one: CCCCn1c(=O)c(F)cn(Cc2ccc(OC)c([N+](=O)[O-])c2)c1=O
-25.2%

Hello, please tell me recorded hERG current change (%, negative = inhibition) at 10uM for this one: CCOCCCNCc1cc(Br)ccc1OCC.Cl
-55.5%

Hello, please tell me recorded hERG current change (%, negative = inhibition) at 10uM for this one: CCCNCc1cc(OC)c(OCc2ccccc2)cc1Br.Cl
-28.2%

Hello, please tell me recorded hERG current change (%, negative = inhibition) at 10uM for this one: CCc1c(C)c(C#N)c2nc3ccccc3n2c1NCc1ccco1
-35.4%

Hello, please tell me recorded hERG current change (%, negative = inhibition) at 10uM for this one: COc1ccc(OCCCNCCc2ccccc2)cc1.O=C(O)C(=O)O
-57%

Hello, please tell me recorded hERG current change (%, negative = inhibition) at 10uM for this one: CCOc1ccccc1N(CC(=O)NC1CCCC1)C(=O)CNC(=O)c1cccs1
-3.75%

Hello, please tell me recorded hERG current change (%, negative = inhibition) at 10uM for this one: N#Cc1cnc(Nc2ccc(F)cc2)nc1N
-2.18%

Hello, please tell me recorded hERG current change (%, negative = inhibition) at 10uM for this one: N#Cc1ccccc1Cn1c(-c2cscn2)nc2ccccc21
-7.78%

Hello, please tell me recorded hERG current change (%, negative = inhibition) at 10uM for this one: CCCCCn1c(=O)c(F)cn(Cc2ccc(OC)c([N+](=O)[O-])c2)c1=O
-56.6%

Hello, please tell me recorded hERG current change (%, negative = inhibition) at 10uM for this one: CC(On1nnc2ccccc21)C(=O)N1CCN(Cc2ccccc2)CC1 (stereo not drawn)
18.2%

Hello, please tell me recorded hERG current change (%, negative = inhibition) at 10uM for this one: O=C(CSc1nc2ccc([N+](=O)[O-])cc2s1)NC1CCS(=O)(=O)C1 (stereo not drawn)
-5.62%

Hello, please tell me recorded hERG current change (%, negative = inhibition) at 10uM for this one: Cc1c(Cl)cccc1NC(=O)Nc1ccccc1C(N)=O
19%
